- measured-on: T1, human AXL (full length) (human, UniProt P30530 26-894)
- T1 construct: also called TH1021-AXL; TH1021-hAXL
- experiment: FMAT screening assay, HEK-293F cells transiently expressing human AXL
observed-property: EC50 (ng/mL)
Express it in ng/mL; write the number only.

binder: IgG1-AXL-148 (antibody, V domains shown) VH: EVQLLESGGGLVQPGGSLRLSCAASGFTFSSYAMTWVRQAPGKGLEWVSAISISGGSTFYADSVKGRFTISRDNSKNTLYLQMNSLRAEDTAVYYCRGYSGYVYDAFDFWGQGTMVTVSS VL: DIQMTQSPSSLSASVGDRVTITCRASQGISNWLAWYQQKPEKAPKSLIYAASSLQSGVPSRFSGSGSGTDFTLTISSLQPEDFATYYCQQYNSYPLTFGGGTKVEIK
EC50 / ng/mL: 3.6

Continue with the binder presented below.
Data request: GET /values?readout=EC50&item= IgG1-AXL-187 (antibody, V domains shown) VH: QVPLQQWGAGLLKPSETLSLTCAVYGGSFSGYHWSWIRQPPGKGLEWIGEISHSGRTNYNPSLKSRVTISIDTSKNQFSLKLSSVTAADTAVYYCASFITMIRGTIITHFDYWGQGTLVTVSS VL: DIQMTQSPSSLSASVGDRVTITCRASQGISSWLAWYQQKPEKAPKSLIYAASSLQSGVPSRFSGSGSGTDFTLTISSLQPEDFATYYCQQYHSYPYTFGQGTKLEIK
Data returned: 6.5
